Source listed as patent US20180251495A1.

The following compounds are listed with their measured Skin permeation, Receptor values.
- EXPERIMENT: In vitro skin permeation of radiolabelled SPPs in Franz diffusion cells
- Assay type: in vitro ADME, porcine
- SETUP_CONDITIONS: peptide amount after 24 hours, 37° C.
- Method: Test formulations were loaded and incubated as described. The skin penetrating ability of the selected heptamer (SP7-1 through SP7-5) SPPs was evaluated in comparison with SPACE™. […] Radiolabelled peptides were loaded on Franz diffusion cells (FDCs) and incubated at 37° C. with moderate stirring. After 24 hours, the various skin layers were harvested, dissolved and analyzed using a scintillation counter to determine the amount of peptide.
Where a SMILES comes first, the peptide text is derived from it. Bridges are numbered along the chain shown (N, C = ends).
Supply the numeric figure in μg/cm^2, leaving out any unit text.

Examples with answers:
COMPOUND	MEASURED_METRIC	MEASUREMENT_UNITS	MEASURED_RESULT
C[C@H](N)C(=O)N[C@H]1CSSC[C@@H](C(=O)NCC(=O)O)NC(=O)[C@H](C)NC(=O)[C@H](CC(N)=O)NC(=O)[C@H](CCCNC(=N)N)NC(=O)CNC(=O)[C@H]([C@@H](C)O)NC(=O)[C@H](CO)NC(=O)[C@H]([C@@H](C)O)NC1=O [SP7-4, ACTSTGRNACG] (H-ACTSTGRNACG-OH; disulfide 2-10; N-terminus and C-terminus assumed)	Skin permeation, Receptor	μg/cm^2	19.8
CC(C)C[C@@H]1NC(=O)[C@@H](NC(=O)[C@H](C)N)CSSC[C@@H](C(=O)NCC(=O)O)NC(=O)[C@H](C)NC(=O)[C@H](CC(N)=O)NC(=O)[C@H](Cc2c[nH]cn2)NC(=O)[C@H](CC(N)=O)NC(=O)[C@H](C(C)C)NC(=O)[C@H](CO)NC1=O [SP7-3, ACLSVNHNACG] (H-ACLSVNHNACG-OH; disulfide 2-10; N-terminus and C-terminus assumed)	Skin permeation, Receptor	μg/cm^2	16.9
CC(C)C[C@@H]1NC(=O)[C@H]([C@@H](C)O)NC(=O)[C@H](C)NC(=O)[C@H](CO)NC(=O)[C@@H](NC(=O)[C@H](C)N)CSSC[C@@H](C(=O)NCC(=O)O)NC(=O)[C@H](CO)NC(=O)[C@H](Cc2c[nH]cn2)NC(=O)[C@H](CCC(N)=O)NC1=O [SP7-1, ACSATLQHSCG] (H-ACSATLQHSCG-OH; disulfide 2-10; N-terminus and C-terminus assumed)	Skin permeation, Receptor	μg/cm^2	42.4
CC(C)C[C@@H]1NC(=O)[C@H](CO)NC(=O)[C@@H](NC(=O)[C@H](C)N)CSSC[C@@H](C(=O)NCC(=O)O)NC(=O)[C@H](CC(N)=O)NC(=O)[C@H](Cc2c[nH]c3ccccc23)NC(=O)[C@H](CC(N)=O)NC(=O)[C@H](C(C)C)NC(=O)[C@H]([C@@H](C)O)NC1=O [SP7-2, ACSLTVNWNCG] (H-ACSLTVNWNCG-OH; disulfide 2-10; N-terminus and C-terminus assumed)	Skin permeation, Receptor	μg/cm^2	65.0

Enquiry: I am curious: what Skin permeation, Receptor value has been reported for C[C@H](N)C(=O)N[C@H]1CSSC[C@@H](C(=O)NCC(=O)O)NC(=O)[C@H](CC(N)=O)NC(=O)[C@H](Cc2c[nH]cn2)NC(=O)[C@H](CC(N)=O)NC(=O)[C@H]([C@@H](C)O)NC(=O)[C@H](CO)NC(=O)[C@H](C)NC(=O)[C@H](CO)NC1=O [SP7-5, ACSASTNHNCG] (H-ACSASTNHNCG-OH; disulfide 2-10; N-terminus and C-terminus assumed) ?
Return: 39.5
